This collection of values is drawn from patent US11197828B2.

experiment: in vivo; details: male, beagle, dog, blood, po, 75 mg
readout.label: AUC(0-inf) (ng·h/mL)
Numeric answer only, unit ng·h/mL assumed.

Entry `CC(=O)O[C@H]1C(=O)[C@@]2(C)[C@H]([C@H](OC(=O)c3ccccc3)[C@]3(O)C[C@H](OC(=O)[C@H](O)[C@@H](NC(=O)c4ccccc4)c4ccccc4)C(C)=C1C3(C)C)[C@]1(OC(C)=O)CO[C@@H]1C[C@@H]2O` has what AUC(0-inf)?
973

---

assay: in vivo; conditions: male, beagle, dog, blood, po, 75 mg
readout.label: AUC(0-t) (ng·h/mL)
Record the value in ng·h/mL, omitting the unit from your answer.

I have this molecule here, `CC(=O)O[C@H]1C(=O)[C@@]2(C)[C@H]([C@H](OC(=O)c3ccccc3)[C@]3(O)C[C@H](OC(=O)[C@H](O)[C@@H](NC(=O)c4ccccc4)c4ccccc4)C(C)=C1C3(C)C)[C@]1(OC(C)=O)CO[C@@H]1C[C@@H]2O` , and I need its recorded AUC(0-t).
771

---

assay: in vivo; settings: male, beagle, dog, blood, po, 75 mg
readout.label: Tmax (h)
The reply should be a number in h, with the unit left off.

Endpoint output: Tmax of `CC(=O)O[C@H]1C(=O)[C@@]2(C)[C@H]([C@H](OC(=O)c3ccccc3)[C@]3(O)C[C@H](OC(=O)[C@H](O)[C@@H](NC(=O)c4ccccc4)c4ccccc4)C(C)=C1C3(C)C)[C@]1(OC(C)=O)CO[C@@H]1C[C@@H]2O` . Value?
2.5

---

assay: in vivo; settings: male, beagle, dog, blood, po, 75 mg
readout.label: Cmax (ng/mL)
Provide only the numeric value, understood in ng/mL.

May I ask what Cmax has been recorded for `CC(=O)O[C@H]1C(=O)[C@@]2(C)[C@H]([C@H](OC(=O)c3ccccc3)[C@]3(O)C[C@H](OC(=O)[C@H](O)[C@@H](NC(=O)c4ccccc4)c4ccccc4)C(C)=C1C3(C)C)[C@]1(OC(C)=O)CO[C@@H]1C[C@@H]2O` ?
148
